// data source = ChEMBL document CHEMBL1828621

Quick reference for Ratio among some compounds
# Tested on: HCT-116
# assay-overview: Cytotoxicity against human HCT116 cells assessed as cell survival at 5 ug/ml after 48 hrs by sulforhodamine B method relative to control
# Type: functional
Form rule: numeric answer, no unit written next to it.

                                     smiles  tested_target  value_reported
0  Cc1ccc(-c2cc3ncc(S(=O)(=O)c4ccccc4)c(-c4ccc(C)cc4)n3n2)cc1        HCT-116           0.408
1  Cc1ccc(-c2c(S(=O)(=O)c3ccccc3)cnc3c(Br)c(-c4ccccc4)nn23)cc1        HCT-116            0.53
2  Cc1cc2ncc(S(=O)(=O)c3ccccc3)c(-c3ccccc3)n2n1        HCT-116           0.671

Task item: Give Ratio for `COc1ccc(-c2cc3ncc(S(=O)(=O)c4ccccc4)c(-c4ccc(Cl)cc4)n3n2)cc1`
Reply: 0.778

Task item: Give Ratio for `O=S(=O)(c1ccccc1)c1cnc2c(Br)c(-c3ccccc3)nn2c1-c1ccccc1`
Reply: 0.271
